Reference for the values: patent US10662235B2

Reported Percent monomer by item:
experiment: Analytical size exclusion chromatography (aggregation state, percent monomer); type: physicochemical; conditions: NEM-conjugated cysteine variants; SEC, Abs280
Field format: number, assumed %, no unit text.

Solved entries (count: 3):
MOLECULE	Percent monomer [%]
S30C (protein, EGFR binding FN3 domain; EGFR-binding FN3 domain) chain 1: MLPAPKNLVVSEVTEDSARLSWDDPWAFYECFLIQYQESEKVGEAIVLTVPGSERSYDLTGLKPGTEYTVSIYGVHNVYKDTNMRGLPLSAIFTT chain 2: LPAPKNLVVSEVTEDSARLSWDDPWAFYECFLIQYQESEKVGEAIVLTVPGSERSYDLTGLKPGTEYTVSIYGVHNVYKDTNMRGLPLSAIFTT	94
T48C (protein, EGFR binding FN3 domain; EGFR-binding FN3 domain) chain 1: MLPAPKNLVVSEVTEDSARLSWDDPWAFYESFLIQYQESEKVGEAIVLCVPGSERSYDLTGLKPGTEYTVSIYGVHNVYKDTNMRGLPLSAIFTT chain 2: LPAPKNLVVSEVTEDSARLSWDDPWAFYESFLIQYQESEKVGEAIVLCVPGSERSYDLTGLKPGTEYTVSIYGVHNVYKDTNMRGLPLSAIFTT	90
N6C (protein) LPAPKCLVVSEVTEDSARLSWDDPWAFYESFLIQYQESEKVGEAIVLTVPGSERSYDLTGLKPGTEYTVSIYGVHNVYKDTNMRGLPLSAIFTT	94

Exam item: Field request: Percent monomer | item: S10C (protein, EGFR binding FN3 domain; EGFR-binding FN3 domain) chain 1: MLPAPKNLVVCEVTEDSARLSWDDPWAFYESFLIQYQESEKVGEAIVLTVPGSERSYDLTGLKPGTEYTVSIYGVHNVYKDTNMRGLPLSAIFTT chain 2: LPAPKNLVVCEVTEDSARLSWDDPWAFYESFLIQYQESEKVGEAIVLTVPGSERSYDLTGLKPGTEYTVSIYGVHNVYKDTNMRGLPLSAIFTT
Marked response: 80
